# Lookup of reported % Inhibition keyed by entry
# Test system: P. falciparum stage V gametocytes
# Parameters: BacTiter-Glo ATP luminescence viability of purified stage V gametocytes in 384-well plates, per cent inhibition versus DMSO
# condition.notes: 48 h, 5 µM; inhibitor
In all, about 13,000 compounds went through this assay and about 3,200 (25%) showed an effect of 50% or more. The list shows a part of the results.
reported.property: % Inhibition (%)

>>> test_result("CC(C)CNCc1cccc(-c2cccc(CN(CCCN3CCN(C)CC3)C(=O)NC3CCCCC3)c2)c1 [TCMDC-140633]")
106.9
>>> test_result("CC(C)CNCc1ccc(-c2ccc(CN(CCCN3CCN(C)CC3)C(=O)CCC3CCCC3)cc2)cc1 [TCMDC-140559]")
105.9
>>> test_result("CCCc1cc(N2CCC(c3ccccc3)(N3CCCCC3)CC2)nc(Nc2ccc(OC)cc2)n1 [TCMDC-132389]")
-43.67
>>> test_result("Cc1ccccc1C(=O)Nc1cccc(-c2nc3ncccn3c2C)c1 [TCMDC-125138]")
25.46
>>> test_result("CCCCn1c(N)c(N(Cc2ccco2)C(=O)C=Cc2cc(OC)c3c(c2)OCCO3)c(=O)[nH]c1=O [TCMDC-125328]")
-14
>>> test_result("CCC[C@@H](C(=O)NCCc1cccc(OC)c1)N1C(=O)c2c(ccc(OC)c2OC)C1C(=O)Nc1c(C)cccc1C (stereo partly shown) [TCMDC-141135]")
18.96
>>> test_result("Cc1c(-c2cccc(NC(=O)C(C)(C)Oc3ccc(Cl)cc3)c2)nc2ncccn12 [TCMDC-124460]")
51.92
>>> test_result("COc1ccc(CCNCCCCCCNCCc2ccccc2Cl)cc1OC [TCMDC-131273]")
87.94
>>> test_result("CN(c1ccc(NC(=O)Nc2cccc(Cl)c2)cc1)c1ccnc(N)n1 [TCMDC-138782]")
0.5988
>>> test_result("CS(=O)(=O)N(CC(O)Cn1c2ccc(Cl)cc2c2cc(Cl)ccc21)c1ccccc1 (stereo not shown) [TCMDC-124039]")
35.36
>>> test_result("CC[C@H](C)CNC(=O)c1cncc(-c2ccc(CNCC3CNCCCO3)cc2)c1 (stereo partly shown) [TCMDC-134269]")
2.096
>>> test_result("CC[C@H](C)CNC(=O)c1cncc(-c2ccc(CN(C)C3CCN(C)CC3)cc2)c1 [TCMDC-134233]")
22.49
>>> test_result("COc1ccc(CCNc2nc(SCc3ccccc3Cl)nc3ccccc23)cc1OC [TCMDC-125569]")
33.86
>>> test_result("CC[C@H](C)CNC(=O)c1cncc(-c2ccc(CNC3CCCC3)cc2)c1 [TCMDC-134232]")
8.826
>>> test_result("COc1cc(C2CCCCC2)c(OC)cc1CC1c2cc(O)c(Cl)cc2CCN1C (stereo not shown) [TCMDC-137539]")
-5.034
>>> test_result("CCN(CC)CCCNc1nccc(N(C)c2ccc(NC(=O)Nc3cc(C(F)(F)F)ccc3F)cc2)n1 [TCMDC-141634]")
97.67
>>> test_result("CN(C)CCC=C1c2ccccc2Sc2c(O)cc(Cl)cc21 [TCMDC-123466]")
-77.93
>>> test_result("CN1CC=C(c2c[nH]c3ccc(OC(=O)c4ccccc4)cc23)C1 [TCMDC-139100]")
-51.1
>>> test_result("O=S1(=O)C=C(c2ccccc2)CC1 [TCMDC-125863]")
-1.513
>>> test_result("CCCCNCc1cc(Cl)c2ccccc2c1O [TCMDC-137599]")
77.6
>>> test_result("N#Cc1ccc(N2CCN(Cc3ccc(-c4ccc(-c5nc6ccccc6[nH]5)s4)cc3)CC2)nc1.O=C(O)C(F)(F)F [TCMDC-133119]")
-24.51
>>> test_result("COc1c(CCNCCCCNCCc2cc(Cl)c3ccccc3c2OC)cc(Cl)c2ccccc12 [TCMDC-137869]")
105.2

Source: paper PMC4552634
